targetDesc: T1, hFc-human LIGHT (human)
T1 construct: also called hFc-huLIGHT
assayExplanation: competition ELISA, LTβR-His coated, hFc-huLIGHT added
quantityName: IC50 (nM)

hum_LT-m58-6 (antibody, human IgG4, V domains shown, humanized from LT-m58) VH: QVQLVQSGAEVKKPGASVKVSCKASGYTFIDHIMNWVRKAPGQGLEWMGRIYPVSGETNYNQKFMGRATFTVDRSTSTVYMELSSLRSEDTAVYYCGRGSYYWNAMDYWGQGTLVTVSS VL: DIVMTQSPDSLAVSLGERATINCKASQSVDFDGESYMNWYQQKPGQPPKLLIYSASNLESGVPDRFSGSGSGTDFTLTISSLQAEDVAVYYCQQSIEDPWTFGQGTKVEIK = 0.628
